# measurementTarget: Glucose transporter (Leishmania mexicana) (UniProt O61059)
# procedureSummary: ST_JUDE_LEISH: Cytotoxicity at 2uM final concentration against transgenic Leishmania Mexicana promastigotes LmGT2 that are glucose transport deficient and complemented with the L. Mexicana glucose transporter 2. Activity is measured by DNA content using SYBR green in vitro
# Type: functional
measureName: inhibition (%)
Give bare numbers, in %.

Cc1cccc2nc(-c3cccc(-c4cccc(CNCCc5cccn5C)c4)c3)[nH]c12 | -0.27

Below are some compounds; for each one, tell me its inhibition.
1. Cc1c(-c2cccc(NC(=O)C(C)(C)Oc3ccc(Cl)cc3)c2)nc2ncccn12
2. Cc1nnsc1C(=O)Nc1cccc(-c2ccc(-c3nc4cc(F)ccc4[nH]3)cc2)c1
3. O=C(Nc1ccc2c(c1)CCC2)c1cccc(CN2CCCN(Cc3cccc(O)c3)CC2)c1
4. COc1ccc(C2CCN(CCCCNC(=O)c3ccc(NC(=O)c4ccc(Cl)cc4)cc3)C2)c(OC)c1 (stereo not drawn)
5. CNc1ccc(CNCc2ccc(-c3ccc(-c4nc5cc(F)ccc5[nH]4)cc3)cc2)cc1

-3.03
4.66
-0.46
0.7
-0.33

---

# measurementTarget: Glucose transporter (Leishmania mexicana)
# procedureSummary: ST_JUDE_LEISH: Cytotoxicity at 2uM final concentration against transgenic Leishmania Mexicana promastigotes LmGT2 that are glucose transport deficient and complemented with the L. Mexicana glucose transporter 2. Activity is measured by DNA content using SYBR green in vitro
# Assay type: functional
measureName: inhibition (%)
One number for each entry, in %.

O=C(Nc1cccc(-c2cccc(-c3nc4cc(F)ccc4[nH]3)c2)c1)c1ccncc1 | 0.2
O=C(NCCCCCN1CCC(c2c[nH]c3ccccc23)C1)Nc1ccc(Cl)c(Cl)c1 (stereo not given) | 2.22

Below are some compounds; for each one, tell me its inhibition.
1. Cc1c(C)n(C2CCCCC2)c2ncnc(OC3CCN(CC(=O)N4CCCC4)CC3)c12
2. C=CCc1cccc(CN2CCC(c3cc(O)nc(-c4ccccn4)n3)CC2)c1O
3. CN1CCC(N2CCN(Cc3ccc(-c4ccc(-c5nc6ccccc6[nH]5)s4)cc3)CC2)CC1
4. C[C@H](NC(=O)[C@H](CCCCNC(=O)OC(C)(C)C)NC(=O)OC(C)(C)c1ccc(-c2ccccc2)cc1)C(=O)OCc1ccccc1
5. Cc1ccccc1OCCCN1CCN(CC(c2ccc(F)cc2)N2CCN(C(C)C)CC2)CC1 (stereo not given)
6. COc1ccccc1C1CCN(C2CCC(NC(=O)c3cc(-c4ccc(Cl)cc4)cs3)CC2)CC1 (stereo not given)
7. COc1ccc(CCNCCCCCCNCCc2ccc(Cl)c(Cl)c2)cc1OC
8. Nc1nc(N)c(-c2ccccc2)c(=O)[nH]1

[1.38, 0.24, 5.9, 1.84, 14.9, 0.71, 3.76, 1.16]

Below are some compounds; for each one, tell me its inhibition.
1. N#Cc1ccc2c(c1)CN(CCC1CCC(NC(=O)c3cc4ccccc4cc3N)CC1)CC2 (stereo not given)
2. COc1ccc2[nH]c(C)cc(=NN=Cc3ccccc3)c2c1
3. COc1cccc(OC2CCN(C(=O)c3cc(C(C)(C)C)nn3Cc3ccccc3)CC2)c1
4. COc1ccc(C(c2ccc(N(C)C)cc2)c2ccc(N(C)C)cc2)cc1
5. O=[N+]([O-])c1ccc(-n2nc(Cc3ccccc3)n(Cc3cccc(F)c3)c2=S)c(C(F)(F)F)c1
6. c1cc(Cc2ccc(Nc3c4ccccc4nc4ccccc34)cc2)cc(Nc2c3ccccc3nc3ccccc23)c1
7. N#C/N=C(\NCCCCCCCCN/C(=N\C#N)NCCSCc1csc(N=C(N)N)n1)NCCCSc1csc(N=C(N)N)n1

1. 3.13
2. -0.26
3. 1.38
4. 84.9
5. -0.25
6. 2.19
7. 0.43

---

# measurementTarget: Glucose transporter (Leishmania mexicana)
# procedureSummary: ST_JUDE_LEISH: Cytotoxicity at 2uM final concentration against transgenic Leishmania Mexicana promastigotes LmGT2 that are glucose transport deficient and complemented with the L. Mexicana glucose transporter 2. Activity is measured by DNA content using SYBR green in vitro
# Format: functional
measureName: inhibition (%)
One number for each entry, in %.

Below: 2 molecules and their reported inhibition.
OC(CNCc1ccccc1OCc1ccccc1)c1cc(C(F)(F)F)cc(C(F)(F)F)c1 (centres undefined) | 4.23
Cc1cccc(C(=O)NC(NC(=S)Nc2cc(Cl)ccc2Cl)C(Cl)(Cl)Cl)c1 (centres undefined) | -2.85

Below are some molecules; for each one, tell me its inhibition.
1. CCC1(CC)CN(c2ccccc2)c2ccc(O)cc2S(=O)(=O)C1CC(C)C (centres undefined)
2. CCOCCCNc1sc(S(=O)(=O)c2ccccc2)nc1S(=O)(=O)c1ccc(C)cc1

0.3
9.56

---

# measurementTarget: Glucose transporter (Leishmania mexicana)
# procedureSummary: ST_JUDE_LEISH: Cytotoxicity at 2uM final concentration against transgenic Leishmania Mexicana promastigotes LmGT2 that are glucose transport deficient and complemented with the L. Mexicana glucose transporter 2. Activity is measured by DNA content using SYBR green in vitro
# Type: functional
What inhibition was measured for each of the following?
Give your result as the value with the unit written after it.

N#Cc1ccc(N(CCOc2ccc(Cl)c(F)c2)Cc2ccccc2C(F)(F)F)cc1C(F)(F)F | -1.25%

Below are some molecules; for each one, tell me its inhibition.
1. COc1ccc(CN(C)C(=O)CCNS(=O)(=O)c2ccc3c(c2)OCCCO3)cc1F
2. c1ccc(Oc2ccc(Nc3ccnc4cc(-c5ccc(CNCCN6CCOCC6)o5)ccc34)cc2)nc1

7.12%
2.3%

---

What inhibition was measured for each of the following?
# measurementTarget: Solute carrier family 2, facilitated glucose transporter member 1 (Homo sapiens)
# procedureSummary: ST_JUDE_LEISH: Cytotoxicity at 2uM final concentration against transgenic Leishmania Mexicana promastigotes LmGLUT1 that are glucose transport deficient and complemented with the human glucose transporter GLUT1. Activity is measured by DNA content using SYBR green in vitro
# Format: functional
One number for each entry, in %.

Below: 3 compounds and their reported inhibition.
COc1cc2nc(SCCCC#N)n(C3CCCCCC3)c(=N)c2cc1OC | 7.27
CCCCC(=O)Nc1nc2ccc([N+](=O)[O-])cc2s1 | 1.98
O=C(/C=C/c1ccc(Cl)c(Cl)c1)NCCCCCCN1CCCN(C(=O)Nc2ccc(Cl)c(C(F)(F)F)c2)CC1 | -1.95

Below are some compounds; for each one, tell me its inhibition.
1. CN1CCN(CCCN(Cc2ccc(-c3cccc(CNCc4ccc5c(c4)OCO5)c3)cc2)C(=O)NCCc2ccccc2)CC1
2. OCC1CCN(Cc2cccc(-c3ccc(-c4nc5cc(C(F)(F)F)ccc5[nH]4)s3)c2)CC1
3. CC[C@H](C)CNC(=O)c1cncc(-c2cccc(CNCCCc3ccccc3)c2)c1
4. O=C(NCCN1CCCC1)c1cccc(-c2ccc(-c3nc4ccccc4[nH]3)cc2)c1
5. Cc1ccccc1Cn1c(CN2CCC(C(=O)NC3CC3)CC2)cc2ccccc21

5.4
4.2
4.76
3.79
2.57

---

# measurementTarget: Glucose transporter (Leishmania mexicana)
# procedureSummary: ST_JUDE_LEISH: Cytotoxicity at 2uM final concentration against transgenic Leishmania Mexicana promastigotes LmGT2 that are glucose transport deficient and complemented with the L. Mexicana glucose transporter 2. Activity is measured by DNA content using SYBR green in vitro
# Format: functional
measureName: inhibition (%)
One number for each entry, in %.

Below: 3 compounds and their reported inhibition.
COc1ccc(NC(=O)Nc2ccc(Nc3nc(C)cc(N(C)C)n3)cc2)cc1 | 4.41
Cc1cccc2nc(-c3cccc(-c4ccc(NC(=O)Cc5ccccn5)cc4)c3)[nH]c12 | 2.64
Cc1cc(CNCCCCCCCNCc2ccc(-c3ccccc3)cc2)ccc1O | 1.05

Supply recorded inhibition for CC1CN(c2cnn(Cc3cccc(NC(=O)Nc4ccc(F)cc4[N+](=O)[O-])c3)c(=O)c2Cl)CC(C)N1 (centres undefined) here.
-0.22

---

# measurementTarget: Solute carrier family 2, facilitated glucose transporter member 1 (Homo sapiens)
# procedureSummary: ST_JUDE_LEISH: Cytotoxicity at 2uM final concentration against transgenic Leishmania Mexicana promastigotes LmGLUT1 that are glucose transport deficient and complemented with the human glucose transporter GLUT1. Activity is measured by DNA content using SYBR green in vitro
# Format: functional
What inhibition was measured for each of the following?
Numbers only, in %.

Cc1ccc(Cn2nc(Cl)c(N3CCNCC3)cc2=O)cc1NC(=O)Nc1ccc(-c2ccccc2)cc1 | 1.36
CC(=O)c1sc2ccccc2c1O | -1.09
COc1cccc(CN2CCCN(Cc3cccc(NC(=O)c4ccc(Cl)c(Cl)c4)c3)CC2)c1 | 4.43

Below are some compounds; for each one, tell me its inhibition.
1. COc1ccc(S(=O)(=O)NCC2CCCN(CCCCCNC(=O)/C=C/c3ccc(Cl)c(Cl)c3)C2)cc1 (configuration not stated)
2. Cc1cc(N[C@@H](Cc2ccccc2)C(=O)NCCOc2ccccc2)nc(Nc2ccccc2)n1
3. CCn1c(C2CCN(CCC3CCN(C(=O)/C=C/c4ccc(Cl)c(Cl)c4)CC3)CC2)nc2ccccc21
4. Cc1cc(C)c(C(=O)Nc2n[nH]c3nnc(-c4cccc(F)c4F)cc23)c(C)c1

1: 0.97; 2: 6.08; 3: 3.31; 4: 0.09

Data origin, for the record: ChEMBL document CHEMBL3433997
